# System: rice blast fungus (Pyricularia grisea)
# Assay type: in vivo
# assay conditions: flowable diluted to 100 ppm, 10 mL per pot foliage spray on paddy rice; inoculated day after; 7 days after inoculation
quantity: evaluation value of control effect (from control value, number of lesions)

molecule	observed measurement
Cn1cc(C(=O)N(C(=O)c2snc(Cl)c2Cl)c2ccccc2C2CC2C2CC2)c(C(F)F)n1 (centres unmarked)	4
Cc1nc(C(F)F)c(C(=O)N(C(=O)c2scnc2C(F)F)c2cccc3c2C(C)CC3(C)C)s1 (centres unmarked)	4
Cc1nc(C(F)F)c(C(=O)N(C(=O)c2cn(C)nc2C(F)F)c2ccccc2CCC(C)C)s1	4
Cc1nc(C(F)F)c(C(=O)N(C(=O)c2c(C(F)F)nn(C)c2Cl)c2ccccc2C(C)CC(C)C)s1 (centres unmarked)	4
CC1OC(C)(C)c2cccc(N(C(=O)c3ccccc3C(F)F)C(=O)c3snc(Cl)c3Cl)c21 (centres unmarked)	4
Cc1nc(C(F)F)c(C(=O)N(C(=O)c2scnc2C(F)(F)F)c2cccc3c2C(C)OC3(C)C)s1 (centres unmarked)	4
CCc1nc(C(F)F)c(C(=O)N(C(=O)c2sc(C)nc2C(F)F)c2ccccc2C(C)CC(C)C)s1 (centres unmarked)	4
CC(C)CC(C)c1ccccc1N(C(=O)c1cccnc1C(C)F)C(=O)c1snc(Cl)c1Cl (centres unmarked)	4

====

The following compounds are listed with their measured evaluation value of control effect (from control value, lesion area percentage) values.
# Test system: barley powdery mildew fungus (Erysiphe graminis)
# assay method text: Test Example 2: control effect against barley powdery mildew by foliage application
# Assay type: in vivo
# assay conditions: wettable powder diluted to 100 ppm, 10 mL per pot foliage spray on barley; inoculated day after; 7 days after inoculation
quantity: evaluation value of control effect (from control value, lesion area percentage)

compound	observed measurement
Cc1nc(C(F)F)c(C(=O)N(C(=O)c2scnc2C(F)F)c2ccccc2C(C)CC(C)C)s1 (centres unmarked)	4
CC(C)CC(C)c1sccc1N(C(=O)c1cccnc1C(F)F)C(=O)c1snc(Cl)c1Cl (centres unmarked)	5
Cc1nc(C(F)F)c(C(=O)N(C(=O)c2snnc2C)c2cccc3c2C(C)CC3(C)C)s1 (centres unmarked)	4
CC(C)CC(C)c1ccccc1N(C(=O)c1cn(C)nc1C(F)F)C(=O)c1snnc1C(F)F (centres unmarked)	5
Cc1nc(C(F)(F)F)c(C(=O)N(C(=O)c2c(C)nn(C)c2F)c2ccccc2C(C)CC(C)C)s1 (centres unmarked)	4
Cc1nc(C(F)F)c(C(=O)N(C(=O)c2cn(C)nc2C(F)F)c2ccccc2C(C)CC(C)C)s1 (centres unmarked)	4
CC1OC(C)(C)c2cccc(N(C(=O)c3cn(C)nc3C(F)F)C(=O)c3cccc4nnsc34)c21 (centres unmarked)	4
CC(C)CC(C)c1ccccc1N(C(=O)c1cccnc1Br)C(=O)c1snc(Cl)c1Cl (centres unmarked)	4
Cc1nc(C(F)F)c(C(=O)N(C(=O)c2cc(F)nc(F)c2)c2ccccc2C(C)CC(C)C)s1 (centres unmarked)	4
CC(C)CC(C)c1ccccc1N(C(=O)c1cccnc1CF)C(=O)c1snc(Cl)c1Cl (centres unmarked)	4
Cc1nc(C(F)F)c(C(=O)N(C(=O)c2snnc2C(F)F)c2ccccc2C(C)CC(C)C)s1 (centres unmarked)	5
Cc1nc(C(F)F)c(C(=O)N(C(=O)c2snnc2C(F)F)c2cccc3c2C(C)CC3(C)C)s1 (centres unmarked)	4
Cc1nnsc1C(=O)N(C(=O)c1cccnc1C(F)F)c1cccc2c1C(C)OC2(C)C (centres unmarked)	4
Cc1nn(C)c(Cl)c1C(=O)N(C(=O)c1cc(Cl)nc(Cl)c1)c1cccc2c1C(C)OC2(C)C (centres unmarked)	4
CCc1nc(C(F)F)c(C(=O)N(C(=O)c2snc(Cl)c2Cl)c2ccccc2C(C)CC(C)C)s1 (centres unmarked)	4
CC1CC(C)(C)c2cccc(N(C(=O)c3cn(C)nc3C(F)F)C(=O)c3cccc4nnsc34)c21 (centres unmarked)	5
Cc1cc(C(=O)N(C(=O)c2scnc2C(F)F)c2ccccc2C(C)CC(C)C)sn1 (centres unmarked)	4

Values were extracted from patent US20210007356A1.
